Each entry below carries its recorded PBM binding z-score.
- Test system: RARg homodimer (NR concentration 270 nM)
- assayName: PBM binding z-score (relative to random genomic background probes); higher = stronger binding; sequences stand for … in GC…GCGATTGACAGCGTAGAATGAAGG

{"polymerSequence": "GCTAGTTGGTCAGTAAATGGTCACACACCGGTCG", "PBM binding z-score": 0.586}

Now for the sequence whose PBM binding z-score we want.
Fill in the recorded PBM binding z-score for this sequence, with RARg homodimer (NR concentration 270 nM) as test system: `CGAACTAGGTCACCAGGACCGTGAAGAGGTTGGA`
5.18

====

- System: VDR homodimer (NR concentration 270 nM)
- assayName: PBM binding z-score (relative to random genomic background probes); higher = stronger binding; sequences stand for … in GC…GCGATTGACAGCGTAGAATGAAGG
Use y when the recorded PBM binding z-score is no lower than 2; use n when it is lower.

Here are 5 sequences together with their reported answers.
{"polymerSequence": "GATACAGGGTCAGCTAGAGGGCAGAGTATGGAAA", "discreteLabel": "n"}
{"polymerSequence": "CTATGTAGGTTAAGGGGGTCAATCAGTTTGAAAG", "discreteLabel": "y"}
{"polymerSequence": "CCTACTGGGCCAAGGTCATTGCTCAGTCAAAGCA", "discreteLabel": "y"}
{"polymerSequence": "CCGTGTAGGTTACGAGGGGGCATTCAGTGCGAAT", "discreteLabel": "y"}
{"polymerSequence": "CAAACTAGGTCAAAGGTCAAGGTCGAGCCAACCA", "discreteLabel": "y"}

Decide: is the reported value of PBM binding z-score for `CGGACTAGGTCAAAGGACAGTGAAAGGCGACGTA` equal to or greater than 2?
n

Likewise for `ATATGTAGGTTAGCTGGCGTCATTCAGACTAGGC` ?
n

Likewise for `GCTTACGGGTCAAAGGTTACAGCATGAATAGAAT` ?
n

Likewise for `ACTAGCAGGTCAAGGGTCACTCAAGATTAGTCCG` ?
y

Likewise for `TCTTGTAGATCAAAGGTCAAGAAAGCCGAAGCCT` ?
n

Likewise for `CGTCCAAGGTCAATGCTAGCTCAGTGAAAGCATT` ?
n

Likewise for `CAAACTAGGTCACGAAAGGTCAAAGTGGAATGAC` ?
y

====

Each entry below carries its recorded PBM binding z-score.
- Tested on: FXR:RXRa (NR concentration 270 nM, RXRa partner concentration 90 nM)
- assayName: PBM binding z-score (relative to random genomic background probes); higher = stronger binding; sequences stand for … in GC…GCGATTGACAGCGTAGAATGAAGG
Respond using a number only.

Take a look at these entries with their results.
{"polymerSequence": "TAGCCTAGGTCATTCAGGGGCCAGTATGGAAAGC", "PBM binding z-score": 4.71}
{"polymerSequence": "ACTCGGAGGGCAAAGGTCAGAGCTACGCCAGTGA", "PBM binding z-score": 5.79}
{"polymerSequence": "CCTACTGGGCCACGAAAGGTCCTTGATTCAGTGA", "PBM binding z-score": -0.183}
{"polymerSequence": "ATATGAAGGTTAGGGTCATTCAGAAAGTAGGGAA", "PBM binding z-score": 5.27}
{"polymerSequence": "CGAACTGGGTCAAAGGACAGTGAAAGGCGACGTA", "PBM binding z-score": 3.03}
{"polymerSequence": "TCGAGTAGGTTACGGGGGCATTCAAGGATGAAGA", "PBM binding z-score": 2.72}
{"polymerSequence": "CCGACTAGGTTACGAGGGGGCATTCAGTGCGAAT", "PBM binding z-score": 2.03}
{"polymerSequence": "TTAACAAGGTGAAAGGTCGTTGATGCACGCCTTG", "PBM binding z-score": 3.99}

Any idea what PBM binding z-score was measured for `CGAGCTAGGTCAAAGGACAGTGAAAGGCGACGTA` ?
4.09

Likewise for `CGAACTAGGTCACCAGCACAGTGAAGAGGTTGGA` ?
4.03

Likewise for `GCTGCTAGGTCAACTGATGGTCAGCTAAAGCTCG` ?
4.31

Likewise for `CGGACTGGGGCAAAGGTTACCATACTCAGTACGA` ?
1.68

====

- Tested on: PXR:RXRa (NR concentration 270 nM, RXRa partner concentration 90 nM)
- assayName: PBM binding z-score (relative to random genomic background probes); higher = stronger binding; sequences stand for … in GC…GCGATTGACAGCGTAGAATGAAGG
Each entry below carries its recorded PBM binding z-score.
Respond using a number only.

Take a look at these entries with their results.
{"polymerSequence": "CCGACTTGGGCAAAGGTTACCATACTCAGTACGA", "assayTarget": "PXR:RXRa (NR concentration 270 nM, RXRa partner concentration 90 nM)", "PBM binding z-score": 1.45}
{"polymerSequence": "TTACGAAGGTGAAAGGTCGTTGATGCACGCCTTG", "assayTarget": "PXR:RXRa (NR concentration 270 nM, RXRa partner concentration 90 nM)", "PBM binding z-score": 3.77}
{"polymerSequence": "TCCAGTAGGTTACGGGGGCATTCAGGGATGAAGA", "assayTarget": "PXR:RXRa (NR concentration 270 nM, RXRa partner concentration 90 nM)", "PBM binding z-score": 3.68}
{"polymerSequence": "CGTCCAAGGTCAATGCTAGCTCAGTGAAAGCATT", "assayTarget": "PXR:RXRa (NR concentration 270 nM, RXRa partner concentration 90 nM)", "PBM binding z-score": 3.48}
{"polymerSequence": "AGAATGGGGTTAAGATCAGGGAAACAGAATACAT", "assayTarget": "PXR:RXRa (NR concentration 270 nM, RXRa partner concentration 90 nM)", "PBM binding z-score": 2.98}

Now for the sequence whose PBM binding z-score we want.
Any idea what PBM binding z-score was measured for `GCTGCTAGGTCATGTTGGTCAGCTAACGGGTACG` ?
1.49

====

Each entry below carries its recorded PBM binding z-score.
- Tested on: PPARa:RXRa (NR concentration 270 nM, RXRa partner concentration 90 nM)
- assayName: PBM binding z-score (relative to random genomic background probes); higher = stronger binding; sequences stand for … in GC…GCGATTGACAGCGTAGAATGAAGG
Respond using a number only.

{"polymerSequence": "CTAACTAGGTCAAGGTCAAAGTCGGTTTGTGCCA", "measuredResult": 6.04}
{"polymerSequence": "CGAACGAGGTCAGAACAGGACAGTGAAGGATGAT", "measuredResult": 4.97}
{"polymerSequence": "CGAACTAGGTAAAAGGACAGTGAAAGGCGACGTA", "measuredResult": 3.16}
{"polymerSequence": "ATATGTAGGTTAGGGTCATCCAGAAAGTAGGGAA", "measuredResult": 5.62}
{"polymerSequence": "GATAGTTGGTCAGTAAAAGGTCACACACCGGTCG", "measuredResult": 4.57}

Any idea what PBM binding z-score was measured for `ATCTAAAGGTCGAAGGTGAGTATACCCACCCGAA` ?
4.71

Likewise for `TCGAGTACGTTACGGGGGCATTCAGGGATGAAGA` ?
2.44

Likewise for `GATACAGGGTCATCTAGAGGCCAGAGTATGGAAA` ?
5.87

====

Each entry below carries its recorded PBM binding z-score.
- System: PPARg:RXRa 90nM:30nM, anti-RXR (NR concentration 90 nM, RXRa partner concentration 30 nM)
- assayName: PBM binding z-score (relative to random genomic background probes); higher = stronger binding; sequences stand for … in GC…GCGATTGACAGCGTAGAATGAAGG
Respond using a number only.

{"polymerSequence": "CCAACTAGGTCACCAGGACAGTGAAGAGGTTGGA", "PBM binding z-score": 6.09}

Fill in the recorded PBM binding z-score for this sequence, with PPARg:RXRa 90nM:30nM, anti-RXR (NR concentration 90 nM, RXRa partner concentration 30 nM) as test system: `CGAACTAGGTCACCAGGATAGTGAAGAGGTTGGA`
6.8

Likewise for `CCTAGTTGGTCAAGGTCTCACACGCTATAGGTAC` ?
0.561

Likewise for `CCGAGTAGGTTACGTGGGGGCATTCAGTGCGAAT` ?
2.73

Likewise for `CGAACCAGGTCAAAGGACAGTGAAAGGCGACGTA` ?
6.76

Likewise for `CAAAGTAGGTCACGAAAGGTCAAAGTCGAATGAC` ?
8.91

====

- System: RARa homodimer (NR concentration 270 nM)
- assayName: PBM binding z-score (relative to random genomic background probes); higher = stronger binding; sequences stand for … in GC…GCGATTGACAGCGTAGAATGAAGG
Each entry below carries its recorded PBM binding z-score.
Respond using a number only.

Take a look at these entries with their results.
{"polymerSequence": "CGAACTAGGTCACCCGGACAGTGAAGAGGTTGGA", "measureName": "PBM binding z-score", "measuredResult": 0.174}
{"polymerSequence": "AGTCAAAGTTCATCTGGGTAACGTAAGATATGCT", "measureName": "PBM binding z-score", "measuredResult": 1.4}
{"polymerSequence": "CCTTACGGGTCAAGGTTATACCACGGGTGGTACG", "measureName": "PBM binding z-score", "measuredResult": 1.71}
{"polymerSequence": "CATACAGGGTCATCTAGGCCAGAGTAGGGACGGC", "measureName": "PBM binding z-score", "measuredResult": 0.656}
{"polymerSequence": "CGAACTAGGTCAAAGGACAGTGACAGGCGACGTA", "measureName": "PBM binding z-score", "measuredResult": 0.339}
{"polymerSequence": "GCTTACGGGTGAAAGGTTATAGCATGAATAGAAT", "measureName": "PBM binding z-score", "measuredResult": 0.6}
{"polymerSequence": "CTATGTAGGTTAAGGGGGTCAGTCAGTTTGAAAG", "measureName": "PBM binding z-score", "measuredResult": 0.767}
{"polymerSequence": "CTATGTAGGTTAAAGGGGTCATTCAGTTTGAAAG", "measureName": "PBM binding z-score", "measuredResult": 1.99}

Any idea what PBM binding z-score was measured for `TGACTGAGGTTAAAGATCAGGGAACGTGGCGTCG` ?
-0.102

Likewise for `TCTTATAGATCAATAGAGGTTAAGAAAGTGCGCT` ?
0.901

Likewise for `CGAACTAGGTCACCAGAACAGTGAAGAGGTTGGA` ?
0.0997

Likewise for `CCGAGTAGGTTACGAGGGGCCATTCAGTGCGAAT` ?
0.136
